# Tested on: HCT-116
# test summary: Cytotoxicity against human HCT-116 cells assessed as reduction in cell viability by CCK8 assay
# Type: functional, cell-based
measurement type: pIC50
// scale note: pIC50 = -log10(conc_M); give the bare number

Kindly note the recorded pIC50 for OCCOCc1cn(CCNc2nonc2/C(=N/O)Nc2ccc(F)c(Br)c2)nn1 , which is 4.25

Kindly note the recorded pIC50 for CC(O)c1cn(CCNc2nonc2/C(=N/O)Nc2ccc(F)c(Br)c2)nn1 (stereo not drawn) , which is 4.63

Kindly note the recorded pIC50 for NS(=O)(=O)NCCNc1nonc1/C(=N/O)Nc1ccc(F)c(Br)c1 [EPACADOSTAT] , which is 4.43

###

# test summary: Protein binding in ICR mouse plasma assessed as fraction unbound by equilibrium dialysis
# Assay type: ADME, cell-free
This section presents molecules with their documented fraction unbound values.
No unit in the answer, please; the number alone is enough.

Kindly note the recorded fraction unbound for OCCOCc1cn(CCNc2nonc2/C(=N/O)Nc2ccc(F)c(Br)c2)nn1 , which is 0.0968

Kindly note the recorded fraction unbound for CC(O)c1cn(CCNc2nonc2/C(=N/O)Nc2ccc(F)c(Br)c2)nn1 (configuration not stated) , which is 0.0584

###

# test summary: Protein binding in Beagle dog plasma assessed as fraction unbound by equilibrium dialysis
# Type: ADME, cell-free, Canis lupus familiaris
measurement type: fraction unbound
No unit in the answer, please; the number alone is enough.

>>> observed("OCCOCc1cn(CCNc2nonc2/C(=N/O)Nc2ccc(F)c(Br)c2)nn1")
0.0498

Kindly note the recorded fraction unbound for CC(O)c1cn(CCNc2nonc2/C(=N/O)Nc2ccc(F)c(Br)c2)nn1 (configuration not stated) , which is 0.0239

###

# test summary: Protein binding in monkey plasma by equilibrium dialysis by equilibrium dialysis
# Type: ADME, cell-free, Macaca mulatta
# conditions: rhesus monkey, read-out: PPB (converted)
This section presents compounds with their documented fraction unbound values.
No unit in the answer, please; the number alone is enough.

>>> observed("CC(O)c1cn(CCNc2nonc2/C(=N/O)Nc2ccc(F)c(Br)c2)nn1 (configuration not stated)")
0.0371

Kindly note the recorded fraction unbound for OCCOCc1cn(CCNc2nonc2/C(=N/O)Nc2ccc(F)c(Br)c2)nn1 , which is 0.0763

###

# test summary: Clearance in Sprague-Dawley rat at 5 mg/kg, iv
# Assay type: ADME, organism-based
# conditions: in vivo
measurement type: clearance (mL/min/kg)
Kindly answer with a numeric value in mL/min/kg, unit omitted.

Kindly note the recorded clearance for OCCOCc1cn(CCNc2nonc2/C(=N/O)Nc2ccc(F)c(Br)c2)nn1 , which is 27.5

###

# test summary: AUC (0 to infinity) in Sprague-Dawley rat at 50 mg/kg, po
# Assay type: ADME, organism-based
# Design: time infinity, dose 50 mg/kg, route po
# conditions: in vivo
This section presents compounds with their documented AUC(0-inf) values.
Kindly answer with a numeric value in ng·h/mL, unit omitted.

>>> observed("OCCOCc1cn(CCNc2nonc2/C(=N/O)Nc2ccc(F)c(Br)c2)nn1")
3950

As a next step, examine the compound that follows.
Kindly note the recorded AUC(0-inf) for CC(O)c1cn(CCNc2nonc2/C(=N/O)Nc2ccc(F)c(Br)c2)nn1 (configuration not stated) , which is 11500

###

This section presents molecules with their documented microsomal CLint values.
# test summary: Clearance in mouse liver microsomes
# Type: ADME, Microsome
# conditions: read-out: CLH
Kindly answer with a numeric value in µL/min/mg, unit omitted.

Kindly note the recorded microsomal CLint for CC(O)c1cn(CCNc2nonc2/C(=N/O)Nc2ccc(F)c(Br)c2)nn1 (configuration not stated) , which is 33.6

Kindly note the recorded microsomal CLint for OCCOCc1cn(CCNc2nonc2/C(=N/O)Nc2ccc(F)c(Br)c2)nn1 , which is 32.2

Data origin: ChEMBL document CHEMBL5055685
